# TEST_TARGET: Streptavidin (Streptomyces avidinii)
# EXPERIMENT: streptavidin binders on small-molecule microarray, primary screen, artefact control for SMM compound annotation, biophysical, 635/667 nm fluorescence (AID 1147);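 also: signal reflects streptavidin binding to arrayed compounds as a control protein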
# CONDITION_LABEL: streptavidin binding, higher = more signal
EXPERIMENTAL_ENDPOINT: composite z-score
// response body must contain only the number

• CCOC(=O)C[C@H]1[C@H](OC(=O)Cc2ccc3c(c2)OCO3)[C@@H](NC(=O)c2ccc3ccccc3c2)c2cc(OCCCO)ccc2N1C(=O)c1ccccc1 = 0.397
• O=C(NCc1ccccc1)[C@@H]1c2ccccc2C(=O)N(CC23CC4CC(CC(C4)C2)C3)[C@H]1c1ccc(CO)cc1 = 0.467
• CCOC(=O)C[C@H]1[C@H](OC(=O)c2cc3ccccc3oc2=O)[C@@H](NC(=O)C2CCCCC2)c2cc(OCCCO)ccc2N1C(=O)c1ccccc1 = 0.191
• COCCOC(=O)N1C(=O)[C@@]2(c3cc(C#Cc4ccc(OC)cc4)ccc31)[C@H](C(N)=O)[C@H]1C(=O)O[C@H](c3ccccc3)[C@H](c3ccccc3)N1[C@@H]2c1ccccc1OCCO = 0.784
• [N-]=[N+]=NCc1ccccc1C[C@@]1(C(=O)NCC(O)CO)N=C(c2ccc(OCCCO)cc2)O[C@@H]1c1ccccc1N=[N+]=[N-] (stereo partly specified) = 1.89

Note down composite z-score recorded for O=C1OCC=C[C@H]2OC34C=CCN(c5ccc6ccccc6c5)C(=O)[C@H]3N(CCCCCCO)C(=O)[C@@H]4[C@@H]12 (stereo partly specified)
-0.719

----------
# EXPERIMENT: E. coli growth modulation, two-sided OD650, primary screen, E. coli filamentation project, strain DRC41, 24 h (AID 1093);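 also: MC1000 strain lacking acrAB efflux and sulA so SOS filamentation is blocked; test concentration not given here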
# CONDITION_LABEL: OD650, 24 h, higher = more signal, called active from +8 up or from −8 down
Rule: z-score of 0.009 or more gives met; anything lower gives not met.

Past entries and their recorded results:
• C=CCC(OC(C)=O)[C@@H]1[C@@H](N(Cc2ccc(-c3cccc(C(F)(F)F)c3)o2)C(=O)Cc2ccc(F)cc2)c2cc(OCCCO)ccc2N1C(=O)Cc1ccc(OC)cc1 (some centres not stated) = not met
• COC(=O)C(CC#Cc1ccc2c(c1)[C@]1(C(=O)N2)[C@H](C(=O)O)[C@H]2C(=O)O[C@H](c3ccccc3)[C@H](c3ccccc3)N2[C@@H]1c1ccc(O)cc1)C(=O)OC = not met

API: above_or_equal(metric=z-score, cutoff=0.009) for item `CCCC[C@H]1OB(O)C[C@H]2C1=C(COc1ccccc1)C[C@H]1C(=O)N(C)C(=O)[C@H]12`
not met

API: above_or_equal(metric=z-score, cutoff=0.009) for item `COc1ccc([Si](C)(C)[C@@H]2[C@@H](CC(=O)N3Cc4ccccc4C[C@H]3CO)O[C@]3(C(=O)N(C)c4c(Br)cc(C)cc43)[C@H]2C)cc1`
met

API: above_or_equal(metric=z-score, cutoff=0.009) for item `O=C(NCC(F)(F)F)[C@@H]1c2ccccc2C(=O)N(C2CCCCC2)[C@H]1c1ccc(CO)cc1`
met

API: above_or_equal(metric=z-score, cutoff=0.009) for item `C=C(COC)/C(=C/C[C@H](OC(=O)c1ccncc1)c1ccc(OCCO)cc1)c1cnc2ccccc2c1`
not met

API: above_or_equal(metric=z-score, cutoff=0.009) for item CC(CO)N1C(=O)[C@@H]2C3C(=O)OCCC/C=C\[C@H]3OC23C=CCN(c2ccc4ccccc4c2)C(=O)[C@@H]13 (some centres not stated)
met

----------
This section presents compounds with their documented z-score values.
# EXPERIMENT: E. coli acrAB mutant growth effects, primary screen, E. coli filamentation inducers, strain DRC39, OD650, 48 h (AID 1179);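 also: screen aims at cell division blockers that make cells filament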
# CONDITION_LABEL: E. coli DRC39 delta-acrAB growth, higher = more signal, called active from +8 up or from −8 down
// response body must contain only the number

Some compounds with recorded z-score:
• COCCOC(=O)N1C(=O)[C@@]2(c3ccccc31)[C@H](c1ccccc1OCCO)N1[C@H](c3ccccc3)[C@H](c3ccccc3)OC(=O)[C@H]1[C@@H]2C(=O)Nc1nc2ccccc2s1 = 1.74
• CCCCC=C[C@@H](NC(=O)Oc1cccc(C(F)(F)F)c1)c1ccccc1 = -0.665
• COC(=O)[C@@]1(Cc2ccc(F)cc2)[C@H]2c3cc(C(=O)N(C)C)n(CC4CC4)c3C[C@H]2CN1C(=O)c1ccccc1 = -0.398
• COC(=O)[C@@]1(Cc2ccc(OC)cc2)[C@H]2c3cc(C(=O)N4CCCC4)n(Cc4ccc(OC)c(OC)c4)c3C[C@H]2CN1C(=O)c1ccccc1 = -0.888
• C#CCN(CC=C(C)C)[C@H](CO)c1ccccc1 = -1.3
• CCN(CC)c1ccc(N2CC=CC34O[C@@H]5/C=C\CCC(C)OC(=O)C5[C@H]3C(=O)N(C(CO)C(C)C)[C@@H]4C2=O)cc1 (stereo partly drawn) = 0.767

Note down z-score recorded for `C=CCN1C(=O)[C@]2(O[C@H](CCO)[C@@H]([Si](C)(C)c3ccc(OC)cc3)[C@@H]2C)c2cc(N3CCCCC3=O)ccc21`
-0.648

----------
# TEST_TARGET: Homeobox protein Hox-A13 (Mus musculus)
# EXPERIMENT: inhibitors of HoxA13-DNA binding, primary screen, biochemical, fluorescence polarization, labeled oligonucleotide (AID 1185)
# CONDITION_LABEL: 15 min, higher = more signal, called active from +8 up or from −8 down
EXPERIMENTAL_ENDPOINT: z-score
// response body must contain only the number

Some compounds with recorded z-score:
- C=C(COC)/C(=C/C[C@@H](OC(C)=O)c1ccc(CO)o1)c1cnc2ccccc2c1: -4.13
- C=CCC(OC(C)=O)[C@@H]1[C@@H](N(Cc2cccc3ccccc23)C(=O)c2ccc(-c3ccccc3)cc2)c2cc(OCCCO)ccc2N1C(=O)Cc1ccc(OC)cc1 (some centres undefined): -1.15
- COC(=O)[C@@]1(Cc2ccc(OC)cc2)[C@H]2c3cc(C(=O)N4CCCC4)n(Cc4ccccc4)c3C[C@H]2CN1C(=O)c1ccccc1: -3.78

// next entry
Note down z-score recorded for CN1C(=O)C2C=CC(C(O)c3ccc(-c4ccccc4)s3)N(N(c3ccccc3)c3ccccc3)C2C1=O (centres undefined)
0.329

----------
# EXPERIMENT: osmotic lysis modulators in infected erythrocytes, primary screen, PSAC antagonist project, cell-based, P. falciparum Indochina, OD700, 3 h (AID 1156)
# CONDITION_LABEL: higher = more signal, called active from +8 up or from −8 down
Rule: z-score of -0.9 or more gives rule met; anything lower gives rule not met.

Past entries and their recorded results:
- CN1C(=O)C2C=CC(C(O)Cc3ccccc3)N(Nc3ccccc3)C2C1=O (stereo not given): rule met
- C=C[C@H](COC(C)=O)N(C(=O)OC(C)(C)C)S(=O)(=O)c1ccc(Br)cc1: rule met
- [N-]=[N+]=NCc1ccccc1C[C@@]1(C(=O)NCC(O)CO)N=C(c2ccc(OCCCO)cc2)O[C@@H]1c1ccccc1N=[N+]=[N-] (stereo not given in full): rule met

API: above_or_equal(metric=z-score, cutoff=-0.9) for item `CC(C)C(=C=CC[C@@H](O)c1ccccc1OCCO)CCO`
rule not met

----------
# EXPERIMENT: binders of probe aFGF2 on microarray, primary screen, stem cell growth factor project, biochemical, small-molecule microarray, fluorescence 635/667 (AID 1067);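 also: measures binding of biotinylated aFGF2 protein to printed compounds on slides; z-score merges feature fluorescence and signal-to-noise across triplicate slides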
# CONDITION_LABEL: higher = more signal
// classify(record): look up composite z-score in ranges label 0 (below -0.06), label 1 (-0.06 to below 0.05), label 2 (0.05 or more)

Past entries and their recorded results:
• [N-]=[N+]=Nc1ccccc1C[C@@]1(C(=O)NCCN2CCOCC2)N=C(c2ccc(OCCCO)cc2)O[C@@H]1c1ccccc1 = label 2
• C=CCNC(=O)[C@@H]1[C@H]2C(=O)O[C@H](c3ccccc3)[C@H](c3ccccc3)N2[C@H](c2ccccc2OCCO)[C@@]12C(=O)N(C(=O)OCCOC)c1ccc(C#CCNC(N)=O)cc12 = label 0
• Cc1ccc(S[C@]2(C(=O)NCCN3CCOCC3)CC(=O)N(Cc3ccccc3)[C@@H]2c2ccc(CO)cc2I)cc1 = label 1
• COc1ccc(C(=O)Nc2ccc(CN3C(=O)[C@@]4(O[C@@H](CCO)[C@H]([Si](C)(C)c5ccc(OC)cc5)[C@H]4C)c4ccccc43)cc2)cc1 = label 0
• COc1ccc([Si](C)(C)[C@@H]2[C@@H](CCO)O[C@]3(C(=O)N(Cc4ccc(N5C(=O)COc6ccccc65)cc4)c4ccccc43)[C@H]2C)cc1 = label 1

Please indicate the class for `C=CCOC(=O)[C@H]1[C@@H]2C(=O)O[C@@H](c3ccccc3)[C@@H](c3ccccc3)N2[C@@H](c2ccc(OCCOC(=O)[C@H]3C[C@H]4C(=O)N5CCC[C@H]5C(=O)N4[C@H]3c3ccc(O)cc3)cc2)[C@]12C(=O)Nc1ccccc12` based on its composite z-score.
label 1

Please indicate the class for CN1C(=O)C2C=CC(C(O)c3ccc(I)cc3)N(N3CCCCC3)C2C1=O (centres undefined) based on its composite z-score.
label 2

Please indicate the class for `C=C(CCCC)/C(=C/C[C@@H](OC(C)=O)c1ccccc1OCCO)c1cnc2ccccc2c1` based on its composite z-score.
label 0

Please indicate the class for COc1ccc(C(O)C2C=CC3C(=O)NC(=O)C3N2Nc2ccccn2)cc1 (centres undefined) based on its composite z-score.
label 1

Reference for the values: PubChem BioAssay
